Listed here: items and their measured IC50.
- Measurement target: JAK2 (recombinant purified GST-tagged catalytic domain) (Homo sapiens (Human), UniProt O60674)
- Sequence (O60674 849-1124): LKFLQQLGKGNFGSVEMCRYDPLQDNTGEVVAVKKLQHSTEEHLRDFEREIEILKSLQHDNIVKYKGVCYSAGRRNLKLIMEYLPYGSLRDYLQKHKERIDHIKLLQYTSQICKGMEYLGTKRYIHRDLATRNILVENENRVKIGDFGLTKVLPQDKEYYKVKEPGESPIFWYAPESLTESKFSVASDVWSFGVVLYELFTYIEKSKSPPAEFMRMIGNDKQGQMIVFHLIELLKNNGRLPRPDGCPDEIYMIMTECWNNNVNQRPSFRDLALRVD
- Measurement protocol: Jak Biochemical HTRF Assay (JAK2)
- Experimental context: [ATP] 8.5 μM
Reply with just the number (in pM).

compound=CC(C)(C)OC(=O)N1CCC(CC#N)(n2nc(Nc3ccc(S(=O)(=O)NCC4CC4)c(F)c3)c3c(=O)[nH]ccc32)CC1 value_observed=910

Ask: May I ask what IC50 has been recorded for CC(O)(c1ccc(Nc2nn([C@]3(CC#N)CCCOC3)c3cc[nH]c(=O)c23)cc1)C(F)(F)F (single isomer, unassigned) [Example 5-111] ?
Result: 350

Ask: Reported IC50 for `CC(C)(C)OC(=O)N1CCC(CC#N)(n2nc(Nc3ccc4c(c3)CN(C3CCN(CC(F)(F)F)CC3)S4(=O)=O)c3c(=O)[nH]ccc32)CC1` : what is it?
Result: 650

Ask: Please give the measured IC50 for this compound: `CC(C)(C)OC(=O)[C@@H]1CC[C@@](CC#N)(n2nc(Nc3ccc4nc(C#N)ccc4c3)c3c(=O)[nH]ccc32)CO1`
Result: 1160

Ask: Requested read-out: IC50. Entry: N#CCC1(n2nc(Nc3ccc([C@@H](O)C(F)(F)F)cc3)c3c(=O)[nH]ccc32)CCN(c2cc(C(F)(F)F)ccn2)CC1 (single isomer, unassigned)
Result: 4810

Ask: Which IC50 value is on record for `CC(C)(C)OC(=O)N1CCC(CC#N)(n2nc(Nc3ccc4c(c3)CN(CC(F)(F)F)S4(=O)=O)c3c(=O)[nH]ccc32)CC1` ?
Result: 300

Ask: What measured IC50 goes with `N#CCC1(n2nc(Nc3ccc4c(c3)CN(CC(F)(F)F)C4=O)c3c(=O)[nH]ccc32)CCCC1` ?
Result: 1510

Ask: Looking for the measured IC50 of Cc1cc(Nc2nn([C@]3(CC#N)CC[C@@H](C(=O)OC(C)(C)C)OC3)c3cc[nH]c(=O)c23)ccc1C(=O)N1CCOC(C)C1 (single isomer, unassigned) [Example 20-10] , can you help?
Result: 310

Ask: Can you share its IC50? I mean this compound: Cc1cc(Nc2nn([C@]3(CC#N)CC[C@@H](C(=O)OC(C)(C)C)OC3)c3cc[nH]c(=O)c23)ccc1C(=O)N1CC(C)OC(C)C1 (single isomer, unassigned) [Example 20-13]
Result: 260

---

- Measurement target: JAK1 (recombinant purified GST-tagged catalytic domain) (Homo sapiens (Human))
- Measurement protocol: Jak Biochemical HTRF Assay (JAK1)
- Experimental context: [ATP] 31.8 μM
This listing pairs compounds with measured IC50.
Put your answer as a value accompanied by its unit after it.

Recorded IC50, per entry:
query_smiles=CNS(=O)(=O)c1ccc(Nc2nn([C@]3(CC#N)CC[C@@H](C(=O)OC(C)(C)C)OC3)c3cc[nH]c(=O)c23)cc1 value_observed="0.04 nM"
query_smiles=CN(C)C(=O)[C@@H]1CC[C@@](CC#N)(n2nc(Nc3ccc(Cl)cc3)c3c(=O)[nH]ccc32)CO1 value_observed="0.23 nM"
query_smiles=CN1Cc2cc(Nc3nn(C4(CC#N)CCCCC4)c4cc[nH]c(=O)c34)ccc2S1(=O)=O value_observed="0.24 nM"
query_smiles=CN(C)S(=O)(=O)c1ccc(Nc2nn(C3(CC#N)CCN(C(=O)C(C)(C)C)CC3)c3cc[nH]c(=O)c23)cc1 value_observed="0.55 nM"
query_smiles=CC(C)OC(=O)N1CCC(CC#N)(n2nc(Nc3ccc(S(=O)(=O)N(C)C)cc3)c3c(=O)[nH]ccc32)CC1 value_observed="0.12 nM"
query_smiles=N#CC[C@@]1(n2nc(Nc3ccc(S(=O)(=O)N4CCOCC4)cc3)c3c(=O)[nH]ccc32)CCCOC1 value_observed="0.29 nM"

Here is the next item to consider.
Ask: // IC50 lookup, key: `CCC(C)(C)S(=O)(=O)c1ccc(Nc2nn([C@]3(CC#N)CCCOC3)c3cc[nH]c(=O)c23)cc1`
Result: 0.15 nM

---

- Measurement target: JAK1 (recombinant purified GST-tagged catalytic domain) (Homo sapiens (Human), UniProt P23458)
- Sequence (P23458 875-1153): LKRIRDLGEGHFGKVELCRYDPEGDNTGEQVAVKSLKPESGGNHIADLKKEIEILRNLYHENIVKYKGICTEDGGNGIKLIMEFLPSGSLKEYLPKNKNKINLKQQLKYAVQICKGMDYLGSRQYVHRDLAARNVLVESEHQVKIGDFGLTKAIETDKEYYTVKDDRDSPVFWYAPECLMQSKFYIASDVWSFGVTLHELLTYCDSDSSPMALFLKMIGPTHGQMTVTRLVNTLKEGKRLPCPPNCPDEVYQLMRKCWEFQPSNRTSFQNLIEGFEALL
- Measurement protocol: Jak Biochemical HTRF Assay (JAK1)
- Experimental context: [ATP] 31.8 μM
Below, each entry is listed with its recorded IC50.
Quick reminder: number only, in nM, skip the unit.

Example results:
compound="N#CC[C@]1(n2nc(Nc3ccc4c(c3)CN(C3CCNCC3)S4(=O)=O)c3c(=O)[nH]ccc32)CCOC[C@H]1F (single isomer, unassigned) [Example 5-271]" value_observed=0.25
compound="CN(C)S(=O)(=O)c1ccc(Nc2nn(C3(CC#N)CCN(C(=O)c4cccc(Cl)c4)CC3)c3cc[nH]c(=O)c23)cc1 [Example 9-14]" value_observed=0.23
compound="CN(C)S(=O)(=O)c1ccc(Nc2nn(C3(CC#N)CCN(C(=O)OC4CCSCC4)CC3)c3cc[nH]c(=O)c23)cc1 [Example 11-4]" value_observed=0.27

For the next question, use this compound.
Ask: Which IC50 reading was recorded for the compound CC(C)(C)OC(=O)N1CC(CC#N)(n2nc(Nc3ccc(S(=O)(=O)C(F)(F)F)cc3)c3c(=O)[nH]ccc32)C1 [Example 5-47] ?
Result: 7.27

---

- Measurement target: JAK1 (recombinant purified GST-tagged catalytic domain) (Homo sapiens (Human), UniProt P23458)
- Measurement protocol: Jak Biochemical HTRF Assay (JAK1)
- Experimental context: [ATP] 31.8 μM
Measurement kind: pIC50
// pIC50: -log10(molar conc.)

In the examples that follow, each entry is paired with its recorded pIC50.
compound=CC(F)(F)C(=O)N1CCC(CC#N)(n2nc(Nc3ccc(S(=O)(=O)C(C)(C)C)cc3)c3c(=O)[nH]ccc32)CC1 measurement_kind=pIC50 value_observed=10.00
compound=CCN(C)S(=O)(=O)c1ccc(Nc2nn([C@]3(CC#N)CC[C@@H](C(=O)OC(C)(C)C)OC3)c3cc[nH]c(=O)c23)cc1 measurement_kind=pIC50 value_observed=10.05

Ask: I have this compound here, `CN(C)S(=O)(=O)c1ccc(Nc2nn(C3(CC#N)CCN(Cc4ccc(C(F)(F)F)cc4)CC3)c3cc[nH]c(=O)c23)cc1` , and I need its recorded pIC50.
Result: 8.63

Ask: Name the reported pIC50 value associated with the compound `CN(C)S(=O)(=O)c1ccc(Nc2nn(C3(CC#N)CCN(Cc4c(F)ccc(F)c4F)CC3)c3cc[nH]c(=O)c23)cc1`
Result: 9.62

Ask: Give the measured pIC50 of `N#CC[C@]1(n2nc(Nc3ccc(Cl)cc3)c3c(=O)[nH]ccc32)CC[C@H](N2CC(F)C2)CC1` .
Result: 10.05

Ask: Requested field: pIC50. Item: `CC(C)(C)OC(=O)N1CCC(CC#N)(n2nc(Nc3ccc(S(=O)(=O)C(F)(F)F)cc3)c3c(=O)[nH]ccc32)CC1`
Result: 9.05

Ask: Find the recorded pIC50 belonging to `N#CC[C@]1(n2nc(Nc3ccc(OC(F)(F)F)cc3)c3c(=O)[nH]ccc32)CC[C@@H](NC2CCCCC2)CC1` and report it.
Result: 7.28

---

Below, each entry is listed alongside its reported log10 IC50.
- Measurement target: JAK1 (recombinant purified GST-tagged catalytic domain) (Homo sapiens (Human))
- Measurement protocol: Jak Biochemical HTRF Assay (JAK1)
- Experimental context: [ATP] 31.8 μM
- Experimental: Jak Biochemical HTRF Assay Protocol The ability of compounds to inhibit the activity of JAK1, JAK2, JAK3, and Tyk2 was measured using a recombinant purified GST-tagged catalytic domain for each enzyme (Invitrogen JAK1 #M4290, JAK2 #M4290, JAK3 #M4290, Tyk2 #M4290) in an HTRF format biochemical assay. […] Plates were shaken and centrifuged and then incubated 60 minutes at room temperature and then read on a Perkin Elmer Envision (λex=337 nm, λem=665 and 615 nm, TRF delay time=20 μs). […]
// do not treat as linear: log10 of IC50, unit nM

Below: 5 compounds and their reported log10 IC50.
compound=N#CCC1(n2nc(Nc3ccc4c(c3)CN(CC(F)(F)F)C4=O)c3c(=O)[nH]ccc32)CCCC1 value_observed=-0.51
compound="Cc1cc(Nc2nn([C@]3(CC#N)CC[C@@H](C(=O)OC(C)(C)C)OC3)c3cc[nH]c(=O)c23)ccc1C(=O)N1CCC(O)(C(F)(F)F)C1 (single isomer, unassigned) [Example 5-160]" value_observed=-0.66
compound=CC(C)(C)OC(=O)N1CCC(CC#N)(n2nc(Nc3ccc(S(N)(=O)=O)cc3)c3c(=O)[nH]ccc32)CC1 value_observed=-0.92
compound="N#CC[C@@]1(n2nc(Nc3ccc4c(c3)CN(C3CCN(CC(F)(F)F)CC3)S4(=O)=O)c3c(=O)[nH]ccc32)CCOC[C@@H]1F (single isomer, unassigned)" value_observed=-1.30
compound="CC(c1ccc(Nc2nn([C@]3(CC#N)CCCOC3)c3cc[nH]c(=O)c23)cc1)N1CCCC1 (single isomer, unassigned) [Example 5-201]" value_observed=-0.31

Ask: Would you kindly share the measured log10 IC50 for CC(C)(C)OC(=O)[C@@H]1CC[C@@](CC#N)(n2nc(Nc3ccc(C4(C(F)(F)F)CCCCN4)cc3)c3c(=O)[nH]ccc32)CO1 (single isomer, unassigned) [Example 5-287] ?
Result: -0.60

Ask: Requested field: log10 IC50. Item: `CN(C)S(=O)(=O)c1ccc(Nc2nn(C3(CC#N)CCOCC3)c3cc[nH]c(=O)c23)cc1`
Result: -0.18

Ask: Item CC(C)(C)OC(=O)N1CCC(CC#N)(n2nc(Nc3ccc(C4(C(F)(F)F)CCNC4)cc3)c3c(=O)[nH]ccc32)CC1 (single isomer, unassigned) [Example 5-283] has what recorded log10 IC50?
Result: -0.48

Ask: Recorded log10 IC50 for `N#CC[C@]1(n2nc(Nc3ccc(Cl)cc3)c3c(=O)[nH]ccc32)CC[C@@H](N2CC(F)C2)CC1` , please?
Result: 0.47

Ask: If you can, please state the reported log10 IC50 value of `Cc1ccc2cc(Nc3nn([C@]4(CC#N)CCCOC4)c4cc[nH]c(=O)c34)ccc2n1` .
Result: -0.96

Ask: GET /values?readout=log10 IC50&item= `CC(C)(C)OC(=O)N1CCC(CC#N)(n2nc(Nc3cc(Cn4cccn4)cc(Cn4cccn4)c3)c3c(=O)[nH]ccc32)CC1`
Result: 0.03

Ask: Find the recorded log10 IC50 belonging to `N#CC[C@]1(n2nc(Nc3ccc(Cl)cc3)c3c(=O)[nH]ccc32)CC[C@@H](Nc2ccccc2)CC1` and report it.
Result: 1.81

Ask: GET /values?readout=log10 IC50&item= `CN(C(C)(C)C)S(=O)(=O)c1ccc(Nc2nn(C3(CC#N)CCOCC3)c3cc[nH]c(=O)c23)cc1`
Result: -0.14
